- System: protease
- test.details: Protease activity retention in detergent use solution (4000 ppm, 5 GPG water; peptidyl substrate, glycine buffer pH 9.0)
- Assay type: biochemical
- condition.set: base formula, phosphonate 0.6 wt-%, use solution at 120° F., time 90 min
assay.endpoint: Relative Protease Enzyme Activity
# do not omit the unit; it follows the number

Here are 3 compounds together with their reported answers.
[[record]]
compound = "NCP(=O)(O)O [AMPA, Aminomethyl phosphonic acid]"
target_or_system = "protease"
assay_endpoint = "Relative Protease Enzyme Activity"
result = "62.50%"

[[record]]
compound = "CC(O)(P(=O)(O)O)P(=O)(O)O [HEDP]"
target_or_system = "protease"
assay_endpoint = "Relative Protease Enzyme Activity"
result = "4.70%"

[[record]]
compound = "O=P(O)(O)CN(CP(=O)(O)O)CP(=O)(O)O [ATMP, Aminotri (methylene phosphonic acid)]"
target_or_system = "protease"
assay_endpoint = "Relative Protease Enzyme Activity"
result = "89.99%"


Let us examine a further case.
Exercise: Which value of Relative Protease Enzyme Activity has been reported for O=C(O)CCC(CC(=O)O)(C(=O)O)P(=O)(O)O (stereo not shown) [PBTC, Phosphonebutane tricarboxylic acid] in the records?
Solution: 2.96%

---

The following compounds are shown together with reported Relative Protease Enzyme Activity values.
- Test system: protease
- test.details: Protease activity retention in detergent use solution (4000 ppm, 5 GPG water; peptidyl substrate, glycine buffer pH 9.0)
- Type: biochemical
- condition.set: base formula, phosphonate at 0.1% elemental phosphorus, use solution at 120° F., time 20 min
- Description: The enzyme activities in the detergents with different phosphonate levels were tested at 4000 ppm in 5 grains per gallon (GPG) water at 120° F. with various time points collected up to 4 hours, after a use solution was generated from the detergent composition. During the tests, the samples at different time points were collected and immediately frozen in an acetone/dry ice bath and stored in −80° C. before the activity of the enzyme was evaluated. […]
# do not omit the unit; it follows the number

[[record]]
compound = "O=C(O)CCC(CC(=O)O)(C(=O)O)P(=O)(O)O (stereo not shown)"
assay_endpoint = "Relative Protease Enzyme Activity"
result = "23.91%"

[[record]]
compound = "NCP(=O)(O)O"
assay_endpoint = "Relative Protease Enzyme Activity"
result = "84.62%"

[[record]]
compound = "CC(O)(P(=O)(O)O)P(=O)(O)O"
assay_endpoint = "Relative Protease Enzyme Activity"
result = "23.58%"


Exercise: Which value of Relative Protease Enzyme Activity has been reported for `O=P(O)(O)CN(CP(=O)(O)O)CP(=O)(O)O` in the records?
Solution: 115.14%

---

- Tested on: lipase
- test.details: Lipase activity retention in detergent use solution (4000 ppm, 5 GPG water; p-nitrophenyl valerate, TRIS buffer pH 8.0)
- Assay type: biochemical
- condition.set: base formula, phosphonate at 0.1% elemental phosphorus, at 120º F. or at room temperature (as titled), time 90 min
The following compounds are shown together with reported Relative Lipase Enzyme Activity values.
# do not omit the unit; it follows the number

Here are 3 compounds together with their reported answers.
[[record]]
compound = "O=C(O)CCC(CC(=O)O)(C(=O)O)P(=O)(O)O (stereo not shown)"
result = "15.95%"

[[record]]
compound = "NCP(=O)(O)O"
result = "33.99%"

[[record]]
compound = "O=P(O)(O)CN(CP(=O)(O)O)CP(=O)(O)O"
result = "30.16%"


Let us examine a further case.
Exercise: Hi! What's the reported Relative Lipase Enzyme Activity for `CC(O)(P(=O)(O)O)P(=O)(O)O` on lipase?
Solution: 16.10%

From: patent US11807835B2
